# System: human cervix carcinoma HeLa cells
# protocolDetails: Cell proliferation (Coulter count) assay, HeLa
# Format: cell-based
# conditionDetails: 120 h, cell count on day 5, read-out: absolute IC50, HeLa
pIC50: −log10 of the molar value.
measurementName: pIC50

Nc1ncnc2c1nc(Cl)n2[C@@H]1O[C@H](COP(=O)(N[C@@H](Cc2ccccc2)C(=O)OCc2ccccc2)Oc2cccc3ccccc23)C(O)C1O (stereo partly shown)
5.30 to 7.00
CC(C)C[C@H](NP(=O)(OC[C@H]1O[C@@H](n2c(Cl)nc3c(N)ncnc32)C(O)C1O)Oc1ccccc1)C(=O)OCc1ccccc1 (stereo partly shown)
5.30 to 7.00
Nc1ncnc2c1nc(Cl)n2[C@@H]1O[C@H](COP(=O)(NCC(=O)OC2CCCCC2)Oc2cccc3ccccc23)C(O)C1O (stereo partly shown)
4.00 to 4.82

Please turn your attention to the following entry.
## Input Field request: pIC50 | item: C[C@H](NP(=O)(OC[C@H]1O[C@@H](n2c(Cl)nc3c(N)ncnc32)C(O)C1O)Oc1cccc2ccccc12)C(=O)OC1CCCCC1 (stereo partly shown)
## Output 5.30 to 7.00
